assay: Metabolic stability in liver microsomes; type: in vitro ADME; conditions: human liver microsomes 0.5 mg/mL, 1 μM compound, NADPH 1 mM; read-out: half-life period/(T1/2, min)
Recorded log10 half-life at 1 μM, one value per entry.
Remember, log10 of half-life at 1 μM, in min.

Check out these entries, answers already filled in.
- Molecule: "C[C@H](NC(=O)c1c(N)nn2cccnc12)c1nc2ccc(F)c(C#Cc3cnn(C4CC4)c3)c2c(=O)n1-c1ccccc1"
  log10 half-life at 1 μM: 2.76
- Molecule: "C[C@H](NC(=O)c1c(N)nn2cccnc12)c1cc2cccc(C#Cc3cnn(C)c3)c2c(=O)n1-c1ccccc1 [IPI-549, reference compound]"
  log10 half-life at 1 μM: 2.29
- Molecule: "C[C@H](NC(=O)c1c(N)nn2cccnc12)c1nc2cccc(C#Cc3cnn(C)c3)c2c(=O)n1-c1ccccc1 [Compound 21 in WO2015051244A1, reference compound]"
  log10 half-life at 1 μM: 2.05
- Molecule: "C[C@H](NC(=O)c1c(N)nn2cccnc12)c1cc2cccc(C#Cc3cnn(C4CC4)c3)c2c(=O)n1-c1ccccc1"
  log10 half-life at 1 μM: 4.07

Now for the molecule whose log10 half-life at 1 μM we want.
query: Requested field: log10 half-life at 1 μM. Item: C[C@H](NC(=O)c1c(N)nn2cccnc12)c1nc2cccc(C#Cc3cnn(C4CC4)c3)c2c(=O)n1-c1ccccc1
result: 2.37

* * *

target: recombinant human PI3Kα (Homo sapiens (Human), UniProt P42336); test: Inhibitory activity on PI3K kinase (ADP-Glo Kinase Assay)
Sequence (P42336 whole entry): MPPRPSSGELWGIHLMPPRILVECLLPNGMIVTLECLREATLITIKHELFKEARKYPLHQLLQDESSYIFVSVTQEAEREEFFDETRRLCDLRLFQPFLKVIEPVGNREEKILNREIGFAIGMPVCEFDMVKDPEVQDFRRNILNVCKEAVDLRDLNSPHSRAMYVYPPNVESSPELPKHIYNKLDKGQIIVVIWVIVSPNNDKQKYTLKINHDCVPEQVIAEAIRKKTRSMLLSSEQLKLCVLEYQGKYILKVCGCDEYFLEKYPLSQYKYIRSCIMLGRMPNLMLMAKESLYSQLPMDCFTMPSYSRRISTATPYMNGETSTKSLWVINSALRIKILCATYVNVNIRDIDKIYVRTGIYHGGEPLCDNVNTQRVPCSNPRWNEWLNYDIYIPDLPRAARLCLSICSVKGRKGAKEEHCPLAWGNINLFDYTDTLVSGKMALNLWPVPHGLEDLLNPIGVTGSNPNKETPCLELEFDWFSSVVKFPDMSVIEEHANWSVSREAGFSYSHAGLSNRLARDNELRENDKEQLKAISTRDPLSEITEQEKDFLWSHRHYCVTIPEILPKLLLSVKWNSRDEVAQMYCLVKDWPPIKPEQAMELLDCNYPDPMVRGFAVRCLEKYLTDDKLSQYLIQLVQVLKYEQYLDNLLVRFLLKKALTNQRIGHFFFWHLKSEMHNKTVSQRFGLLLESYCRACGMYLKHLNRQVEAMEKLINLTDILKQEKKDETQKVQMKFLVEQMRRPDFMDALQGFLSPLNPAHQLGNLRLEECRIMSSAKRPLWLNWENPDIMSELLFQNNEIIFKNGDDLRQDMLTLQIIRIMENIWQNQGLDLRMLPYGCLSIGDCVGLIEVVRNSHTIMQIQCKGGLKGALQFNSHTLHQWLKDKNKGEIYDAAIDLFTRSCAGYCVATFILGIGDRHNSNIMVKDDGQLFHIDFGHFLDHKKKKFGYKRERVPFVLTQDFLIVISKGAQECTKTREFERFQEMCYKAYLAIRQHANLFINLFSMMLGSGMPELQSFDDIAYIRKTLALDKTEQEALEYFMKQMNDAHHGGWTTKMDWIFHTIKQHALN
Sequence (P27986 whole entry partner): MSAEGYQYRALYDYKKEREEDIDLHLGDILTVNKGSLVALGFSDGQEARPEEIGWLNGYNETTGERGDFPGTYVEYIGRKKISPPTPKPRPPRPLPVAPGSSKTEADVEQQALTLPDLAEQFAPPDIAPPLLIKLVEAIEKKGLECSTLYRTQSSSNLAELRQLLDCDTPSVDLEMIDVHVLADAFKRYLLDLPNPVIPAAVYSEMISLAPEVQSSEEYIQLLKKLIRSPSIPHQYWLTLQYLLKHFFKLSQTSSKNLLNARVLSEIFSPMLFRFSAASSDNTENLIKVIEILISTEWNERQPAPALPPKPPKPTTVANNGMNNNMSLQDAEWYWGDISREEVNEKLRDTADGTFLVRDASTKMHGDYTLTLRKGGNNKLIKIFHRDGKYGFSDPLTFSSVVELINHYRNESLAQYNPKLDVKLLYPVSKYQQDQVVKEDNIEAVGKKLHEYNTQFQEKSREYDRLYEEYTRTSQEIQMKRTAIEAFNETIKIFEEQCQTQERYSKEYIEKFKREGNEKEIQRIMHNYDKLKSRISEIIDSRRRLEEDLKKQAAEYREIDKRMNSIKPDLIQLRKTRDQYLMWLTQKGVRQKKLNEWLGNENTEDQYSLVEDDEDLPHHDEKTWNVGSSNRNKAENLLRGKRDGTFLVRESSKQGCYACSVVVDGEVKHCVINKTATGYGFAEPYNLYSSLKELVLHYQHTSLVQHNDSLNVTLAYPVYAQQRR
Metric: pIC50
Scale: negative log10 of molar concentration, which is what pIC50 denotes.

Sample answers from the record:
- Chemical smiles: "C[C@H](NC(=O)c1c(N)nn2cccnc12)c1nc2ccc(F)c(C#Cc3cnn(C4CC4)c3)c2c(=O)n1-c1ccccc1"
  Metric: "pIC50"
  Numeric result: 6.84
- Chemical smiles: "C[C@H](NC(=O)c1c(N)nn2cccnc12)c1cc2cccc(C#Cc3cnn(C4CC4)c3)c2c(=O)n1-c1ccccc1"
  Metric: "pIC50"
  Numeric result: 6.99

Read the next record carefully.
query: Could you tell me which pIC50 is on file for C[C@H](NC(=O)c1c(N)nn2cccnc12)c1nc2cccc(C#Cc3cnn(C4CC4)c3)c2c(=O)n1-c1ccccc1 ?
result: 6.67

* * *

target: PI3Kα(C2C12) (Mus musculus (Mouse), UniProt P42337); assay: Cell activity of PI3K subtypes, AlphaLISA p-AKT (pS473); conditions: C2C12 cells, IGF-1 stimulated
Sequence (P42337 whole entry): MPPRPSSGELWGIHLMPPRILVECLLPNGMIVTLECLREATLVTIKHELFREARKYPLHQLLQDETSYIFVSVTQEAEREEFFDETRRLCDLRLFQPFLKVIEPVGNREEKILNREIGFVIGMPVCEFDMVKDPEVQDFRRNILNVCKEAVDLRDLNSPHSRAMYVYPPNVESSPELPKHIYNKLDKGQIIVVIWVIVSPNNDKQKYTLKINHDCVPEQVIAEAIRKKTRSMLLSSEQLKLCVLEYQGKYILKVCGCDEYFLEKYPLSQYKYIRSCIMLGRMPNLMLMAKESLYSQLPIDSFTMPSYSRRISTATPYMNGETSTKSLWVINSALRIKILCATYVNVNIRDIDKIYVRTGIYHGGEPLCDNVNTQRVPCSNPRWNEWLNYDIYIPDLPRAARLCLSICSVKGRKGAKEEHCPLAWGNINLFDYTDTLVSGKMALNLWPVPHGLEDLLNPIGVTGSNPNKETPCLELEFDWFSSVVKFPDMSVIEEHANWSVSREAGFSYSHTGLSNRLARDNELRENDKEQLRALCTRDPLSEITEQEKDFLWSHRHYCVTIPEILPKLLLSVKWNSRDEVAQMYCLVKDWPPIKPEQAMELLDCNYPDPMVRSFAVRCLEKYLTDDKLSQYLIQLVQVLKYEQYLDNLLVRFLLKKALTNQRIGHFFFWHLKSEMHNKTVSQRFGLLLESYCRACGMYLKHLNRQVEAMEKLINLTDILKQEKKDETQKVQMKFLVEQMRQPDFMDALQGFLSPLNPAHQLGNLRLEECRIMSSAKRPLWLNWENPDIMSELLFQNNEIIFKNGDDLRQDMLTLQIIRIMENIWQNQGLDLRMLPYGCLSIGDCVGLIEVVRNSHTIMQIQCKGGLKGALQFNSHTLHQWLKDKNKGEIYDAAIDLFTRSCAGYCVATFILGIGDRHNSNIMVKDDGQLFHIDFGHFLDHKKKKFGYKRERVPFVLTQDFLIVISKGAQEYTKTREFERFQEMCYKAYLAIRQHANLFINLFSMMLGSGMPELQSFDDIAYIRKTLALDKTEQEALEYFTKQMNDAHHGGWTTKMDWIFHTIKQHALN
Sequence (P26450 whole entry partner): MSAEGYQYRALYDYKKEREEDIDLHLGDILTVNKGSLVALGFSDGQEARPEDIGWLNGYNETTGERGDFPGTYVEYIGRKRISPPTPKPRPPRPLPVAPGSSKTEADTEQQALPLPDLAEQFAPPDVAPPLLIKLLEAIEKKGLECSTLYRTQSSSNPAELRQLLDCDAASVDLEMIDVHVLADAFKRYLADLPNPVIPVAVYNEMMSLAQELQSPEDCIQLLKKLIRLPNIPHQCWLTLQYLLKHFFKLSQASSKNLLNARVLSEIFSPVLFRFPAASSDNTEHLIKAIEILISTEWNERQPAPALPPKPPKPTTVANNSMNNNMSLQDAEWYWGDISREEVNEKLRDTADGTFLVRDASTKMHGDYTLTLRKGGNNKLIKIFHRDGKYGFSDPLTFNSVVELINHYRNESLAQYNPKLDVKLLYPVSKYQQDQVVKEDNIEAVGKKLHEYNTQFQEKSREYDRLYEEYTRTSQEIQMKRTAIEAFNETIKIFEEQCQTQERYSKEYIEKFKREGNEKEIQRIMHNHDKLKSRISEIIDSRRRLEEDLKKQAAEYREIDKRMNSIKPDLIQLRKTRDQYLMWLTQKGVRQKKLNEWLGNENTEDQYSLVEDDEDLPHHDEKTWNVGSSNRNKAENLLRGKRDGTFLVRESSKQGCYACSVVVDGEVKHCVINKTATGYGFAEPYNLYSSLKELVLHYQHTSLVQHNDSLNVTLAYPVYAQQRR
Metric: IC50 (µM)
Please respond with the number in µM and leave the unit unwritten.

query: Dear colleague, I am looking for the recorded IC50 of the following molecule: C[C@H](NC(=O)c1c(N)nn2cccnc12)c1nc2cccc(C#Cc3cnn(C4CC4)c3)c2c(=O)n1-c1ccccc1
result: 4.77

* * *

target: recombinant human PI3Kβ (Homo sapiens (Human), UniProt P42338); assay: Inhibitory activity on PI3K kinase (ADP-Glo Kinase Assay)
Sequence (P42338 whole entry, one chain of several): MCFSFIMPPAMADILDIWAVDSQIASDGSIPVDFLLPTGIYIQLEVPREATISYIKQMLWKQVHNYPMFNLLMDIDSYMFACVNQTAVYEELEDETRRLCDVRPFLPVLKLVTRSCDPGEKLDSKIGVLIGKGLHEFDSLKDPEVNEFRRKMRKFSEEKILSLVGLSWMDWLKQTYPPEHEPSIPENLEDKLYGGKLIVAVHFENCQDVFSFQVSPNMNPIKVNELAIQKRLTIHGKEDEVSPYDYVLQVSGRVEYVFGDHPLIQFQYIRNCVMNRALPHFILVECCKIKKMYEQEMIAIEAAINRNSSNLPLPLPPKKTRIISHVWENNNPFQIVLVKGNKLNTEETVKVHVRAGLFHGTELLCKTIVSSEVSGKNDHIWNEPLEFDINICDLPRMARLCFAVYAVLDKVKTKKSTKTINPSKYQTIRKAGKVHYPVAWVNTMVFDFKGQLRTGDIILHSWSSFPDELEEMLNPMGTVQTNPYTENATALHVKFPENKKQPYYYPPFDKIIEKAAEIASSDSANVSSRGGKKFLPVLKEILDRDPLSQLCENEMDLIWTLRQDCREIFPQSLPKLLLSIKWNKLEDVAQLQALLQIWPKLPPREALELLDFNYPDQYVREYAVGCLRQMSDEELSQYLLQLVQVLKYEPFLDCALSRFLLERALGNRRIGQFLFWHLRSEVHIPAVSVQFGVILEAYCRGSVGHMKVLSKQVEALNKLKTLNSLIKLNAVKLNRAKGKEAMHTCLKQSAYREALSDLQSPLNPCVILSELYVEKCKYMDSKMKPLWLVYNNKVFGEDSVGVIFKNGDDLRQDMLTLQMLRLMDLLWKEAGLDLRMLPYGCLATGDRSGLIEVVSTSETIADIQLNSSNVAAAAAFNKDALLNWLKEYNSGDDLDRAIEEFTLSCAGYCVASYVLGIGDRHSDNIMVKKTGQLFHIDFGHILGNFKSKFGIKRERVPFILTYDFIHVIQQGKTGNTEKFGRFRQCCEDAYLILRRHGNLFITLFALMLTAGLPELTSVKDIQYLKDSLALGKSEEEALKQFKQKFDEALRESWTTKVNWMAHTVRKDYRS
Measured pIC50 accompanies every entry in the list below.
Formally, pIC50 is defined as -log10 of the concentration c, with c in mol/L.

- Compound: "C[C@H](NC(=O)c1c(N)nn2cccnc12)c1nc2ccc(F)c(C#Cc3cnn(C4CC4)c3)c2c(=O)n1-c1ccccc1 [Example 3]"
  pIC50: 6.26
- Compound: "C[C@H](NC(=O)c1c(N)nn2cccnc12)c1cc2cccc(C#Cc3cnn(C4CC4)c3)c2c(=O)n1-c1ccccc1 [Example 1]"
  pIC50: 6.63

Shift focus to the following entry.
query: Hi! What's the reported pIC50 for C[C@H](NC(=O)c1c(N)nn2cccnc12)c1nc2cccc(C#Cc3cnn(C4CC4)c3)c2c(=O)n1-c1ccccc1 [Example 2] on recombinant human PI3Kβ (Homo sapiens (Human), UniProt P42338)?
result: 6.33

* * *

experiment: Oral pharmacokinetics in ICR mice; type: in vivo; conditions: male, mouse, plasma, Oral (5 mg/kg), read-out: Area under the curve AUC0-∞
Metric: AUC(0-inf) (ng·h/mL)
Express the result in ng·h/mL but write the number alone.

query: State the recorded AUC(0-inf) for this entry: C[C@H](NC(=O)c1c(N)nn2cccnc12)c1nc2cccc(C#Cc3cnn(C4CC4)c3)c2c(=O)n1-c1ccccc1 [Example 2]
result: 15100

query: So what does the record say about AUC(0-inf) for C[C@H](NC(=O)c1c(N)nn2cccnc12)c1cc2cccc(C#Cc3cnn(C4CC4)c3)c2c(=O)n1-c1ccccc1 [Example 1] ?
result: 7470

query: Reported AUC(0-inf), compound C[C@H](NC(=O)c1c(N)nn2cccnc12)c1cc2cccc(C#Cc3cnn(C)c3)c2c(=O)n1-c1ccccc1 [IPI-549, reference compound] : ____
result: 2660

* * *

experiment: Oral pharmacokinetics in SD rats; assay type: in vivo; conditions: male, rat, plasma, Oral (5 mg/kg), read-out: Area under the curve AUC0-∞
Quick reference: AUC(0-inf) of the listed items.
Record the value in ng·h/mL, omitting the unit from your answer.

Field: example entries. Status: answers known.
- Compound: "C[C@H](NC(=O)c1c(N)nn2cccnc12)c1cc2cccc(C#Cc3cnn(C)c3)c2c(=O)n1-c1ccccc1 [IPI-549, reference compound]"
  Metric: "AUC(0-inf)"
  Numeric result: 1950
- Compound: "C[C@H](NC(=O)c1c(N)nn2cccnc12)c1cc2cccc(C#Cc3cnn(C4CC4)c3)c2c(=O)n1-c1ccccc1 [Example 1]"
  Metric: "AUC(0-inf)"
  Numeric result: 3940

Now consider a different compound.
query: What value of measured AUC(0-inf) is listed for C[C@H](NC(=O)c1c(N)nn2cccnc12)c1nc2cccc(C#Cc3cnn(C4CC4)c3)c2c(=O)n1-c1ccccc1 [Example 2] ?
result: 11000

* * *

Cmax values for the molecules below.
test: Oral pharmacokinetics in SD rats; format: in vivo; details: male, rat, plasma, Oral (5 mg/kg), read-out: Plasma concentration Cmax
Please give a number only; it is taken to be in ng/mL.

Worked examples follow.
- Molecule: "C[C@H](NC(=O)c1c(N)nn2cccnc12)c1nc2cccc(C#Cc3cnn(C4CC4)c3)c2c(=O)n1-c1ccccc1 [Example 2]"
  Cmax [ng/mL]: 1160
- Molecule: "C[C@H](NC(=O)c1c(N)nn2cccnc12)c1cc2cccc(C#Cc3cnn(C)c3)c2c(=O)n1-c1ccccc1 [IPI-549, reference compound]"
  Cmax [ng/mL]: 358

# evaluate next
query: Given the molecule C[C@H](NC(=O)c1c(N)nn2cccnc12)c1cc2cccc(C#Cc3cnn(C4CC4)c3)c2c(=O)n1-c1ccccc1 [Example 1] , what is its reported Cmax?
result: 587

* * *

Experiment: Oral pharmacokinetics in SD rats
Assay type: in vivo
Details: male, rat, plasma, Oral (5 mg/kg), read-out: Half-life period T1/2 (converted)
Protocol: Using SD rats as test animals, the rats were intragastrically administrated with the compound of the present invention. LC/MS/MS method was used to determine the drug concentration in the plasma at different times to study the pharmacokinetic characteristics of the compound of the present invention in rats. An appropriate amount of the compound to be tested was weighed, and 0.5% sodium carboxymethylcellulose (containing 0.05% Tween80) was added. […]
Measured half-life, listed per entry.
All answers are understood in h, so give the number only.

Solved cases (2 shown):
- Molecule: "C[C@H](NC(=O)c1c(N)nn2cccnc12)c1cc2cccc(C#Cc3cnn(C4CC4)c3)c2c(=O)n1-c1ccccc1 [Example 1]"
  Numeric result: 5.1
- Molecule: "C[C@H](NC(=O)c1c(N)nn2cccnc12)c1nc2cccc(C#Cc3cnn(C4CC4)c3)c2c(=O)n1-c1ccccc1 [Example 2]"
  Numeric result: 4.1

Then there is this molecule:
query: GET /values?readout=half-life&item= C[C@H](NC(=O)c1c(N)nn2cccnc12)c1cc2cccc(C#Cc3cnn(C)c3)c2c(=O)n1-c1ccccc1 [IPI-549, reference compound]
result: 2.4

* * *

assay: Oral pharmacokinetics in ICR mice; type: in vivo; conditions: male, mouse, plasma, Oral (5 mg/kg), read-out: Half-life period T½ (converted)
Metric: half-life (h)
// return numeric value only (unit: h, not printed)

query: Entry C[C@H](NC(=O)c1c(N)nn2cccnc12)c1cc2cccc(C#Cc3cnn(C4CC4)c3)c2c(=O)n1-c1ccccc1 : reported half-life = ?
result: 3.1

query: Requested field: half-life. Item: C[C@H](NC(=O)c1c(N)nn2cccnc12)c1nc2cccc(C#Cc3cnn(C4CC4)c3)c2c(=O)n1-c1ccccc1
result: 3.4
